Biological target: CV S-protein construct 6 trimer TP31001F (SARS-CoV-2, UniProt P0DTC2 14-1208)
Assay: SPR
Provide the recorded pKd for the entries that follow.
The value called pKd is obtained by taking minus log10 of the concentration in mol/L.

Exercise: Param item = variant 6-57 (Fc fusion) VHH: EVQLVESGGGLVQPGGSLRLSCAASGLTFDDHSMGWFRQAPGKEREFVAAVPLSGNTYYADSVKGRFTISADNSKNTAYLQMNSLKPEDTAVYYCASFSGGPADFDYWGQGTLVTVSS ; retrieve measured pKd.
Solution: 9.15

Exercise: Entry under review: variant 6-6 (Fc fusion) VHH: EVQLVESGGGLVQPGGSLRLSCAASGTTLDYYAMGWFRQAPGKERELVAAISWSGGSTAYADSVKGRFTISADNSKNTAYLQMNSLKPEDTAVYYCAREDYYDSSGYSWGQGTLVTVSS . Reported pKd?
Solution: 7.17
